This collection of values is drawn from patent US20230310388A1.

# Test system: Candida albicans
# MEASUREMENT DESCRIPTION: CLSI broth microdilution MIC (Example 5)
# Assay type: cell-based
# MEASUREMENT CONDITIONS: clinical isolate C. albicans 16-90050810
PARAMETER: MIC (µg/mL)

State the recorded MIC for this entry: `[H]/N=C(\N)NN=C(CCCCCC)c1ccc(Cl)cc1` 16

Param item = `CN(C)c1ccc(/C=N/NC(=N)N/N=C/c2ccc(N(C)C)cc2)cc1.Cl` ; retrieve measured MIC. 16

---

# System: Candida albicans
# MEASUREMENT DESCRIPTION: CLSI broth microdilution MIC (Example 4)
# Type: cell-based
# MEASUREMENT CONDITIONS: Candida albicans SA3
PARAMETER: MIC at 24-48 hours

Answered cases to consult:
// returns reported MIC at 24-48 hours for input Cl.N=C(NN=Cc1cccc(F)c1)NN=Cc1cccc(F)c1 [NCL023] 32 µg/mL

Look up MIC at 24-48 hours: Cl.N=C(NN=CC1CCCCC1)NN=CC1CCCCC1 [NCL094] >32 µg/mL

---
# get_value(readout='MIC at 24-48 hours', item= Cl.N#Cc1ccc(C=NNC(=N)NN=Cc2ccc(C#N)cc2)cc1 [NCL024] ) >32 µg/mL

Recorded MIC at 24-48 hours of Nc1nc(N/N=C/c2cc(O)c(O)c(O)c2)cc(N/N=C/c2cc(O)c(O)c(O)c2)n1 [NCL247] , please. >32 µg/mL
